Test system: HuTu80
assay text: three day MTT cytotoxicity assay
Type: cell-based, human
reported conditions: HuTu80 (duodenum), 72 hours
reported endpoint: ED50 (ug/ml) HuTu80 (µg/mL)
Please reply with the bare figure in µg/mL and do not write the unit itself.

Worked examples follow.
COc1ccc(C2=C(c3cc(OC)c(OC)c(OC)c3)C(=O)C(O)C2)cc1Cl (centres unmarked) [Compound 67] ... 29
COc1ccc(C2=C(c3cc(OC)c(OC)c(OC)c3)/C(=N\O)C(O)C2)cc1F (centres unmarked) [Compound 66] ... 9
COc1ccc(C2=C(c3cc(OC)c(OC)c(OC)c3)C(=O)C(O[Si](C)(C)C(C)(C)C)C2)cc1OC(C)C (centres unmarked) [Compound 56] ... 6

q: Recorded ED50 (ug/ml) HuTu80 of COc1ccc(C2=C(c3cc(OC)c(OC)c(OC)c3)C(=O)CC2O)cc1O (centres unmarked) [Compound 39] , please.
a: 1.5
